Entries and their growth values follow.
Test system: CAKI-1 renal
Assay: NCI-60 one-dose screen, 48 h (100 = growth as untreated, 0 = no growth, -100 = all killed)
Conditions: 10 µM unless noted
About 83,000 compounds went through this panel and 20% of them were active in at least one assay; those are over-represented in the sample as a whole.
Respond numerically; units are % and should not be typed.

Completed entries (count: 8):
NC1=CSC2=N/C(=C\c3ccc(Cl)cc3)C(=O)N12 ... 38.8
COc1ccc(-n2cc(-c3ccccc3)c3c(SCC(=O)N/N=C/c4ccc([N+](=O)[O-])cc4)ncnc32)cc1 ... 89.7
C/C(Cc1ccc(Cl)cc1)=C(\c1ccc(OCCN2CCCCCC2)cc1)c1ccc(OC(=O)Cc2ccccc2)cc1 ... 79.4
NCCN1CCN(c2nccc(-c3ccc4ccccc4c3)n2)CC1 ... 45.3
COc1ccc(C(=O)c2sc3nc(-c4ccccc4OC)ccc3c2N)cc1OC ... 62.4
CCOC(=O)c1c2c(n3ccc(NC(=O)CCN4CCOCC4)cc13)C(=O)c1ncccc1C2=O ... 21.5
NC(N)=Nc1ccc(S(=O)(=O)O)cc1 ... 115
CS(=O)CCCCCN=C=S (stereo not given) ... -15.3

Enquiry: Read off the recorded growth for COC(=O)[C@H](C(C)C)n1c(=O)c2cc(OC)c(OC)cc2c2cnc3[nH]ccc3c21
Return: 30.5

Enquiry: Read off the recorded growth for CNC(=O)c1cc(Oc2ccc3nc(NC(=O)Nc4ccc(CN5CCOCC5)c(C(F)(F)F)c4)sc3c2)ccn1
Return: 19.4
